ASSAY_REMARKS: Evaluation of solubility of acid generator in PGMEA
STATED_CONDITIONS: maximal concentration dissolved in propylene glycol monomethyl ether acetate (PGMEA)
EXPERIMENTAL_ENDPOINT: Solvent solubility of acid generator

COMPOUND	REPORTED_MEASUREMENT
CCCCC(Oc1cc2c3c(cccc3c1)C(=O)N(OS(=O)(=O)C(F)(F)C(=O)OCCC13CC4CC(CC(C4)C1)C3)C2=O)C(=O)OC(C)(C)C (stereo not drawn) [PAG-19]	15% by mass
CCCCC(CC)COC(=O)CSc1ccc2c3c(cccc13)C(=O)N(OS(=O)(=O)C(F)(F)C(=O)OC1C3CC4OS(=O)(=O)C1C4C3)C2=O (stereo not drawn) [PAG-12]	> 20% by mass
O=C1c2cccc3cccc(c23)C(=O)N1OS(=O)(=O)C(F)(F)C(=O)OC1C2CC3OS(=O)(=O)C1C3C2 (stereo not drawn) [PAG-8]	< 1% by mass

Where do the numbers come from? From patent US20220283500A1.
